- Tested on: U2OS
- ASSAY_NAME: cell viability relative to DMSO; higher = less toxic
- COND: 72 h; 10000 nM
VALUE_KIND: cell viability (%)
All answers are understood in %, so give the number only.

MOLECULE	cell viability (%)
C[C@@H](NC(=O)CCc1nc2ccccc2c(=O)[nH]1)c1ccccc1	95.8
Nc1ccn([C@H]2CC[C@@H](CO)O2)c(=O)n1	99.1
C[C@@H](NC(=O)c1ncnc(N)c1Cl)c1ncc(C(=O)Nc2cc(C(F)(F)F)c(Cl)cn2)s1	95.4

INPUT: cell viability for CN(C)CCC(c1ccccc1)c1ccccn1 (centres undefined) ?
OUTPUT: 109

INPUT: cell viability for `C(#Cc1nc2ncccc2nc1OCCN1CCCC1)c1ccccc1` ?
OUTPUT: -0.2

INPUT: cell viability for [O-][n+]1cccc(CO)c1 [mepiroxol] ?
OUTPUT: 99.2

====

- Test system: Calu-3
- ASSAY_NAME: cell viability relative to DMSO; higher = less toxic
- COND: 72 h; 1 nM
Here, each record is paired with measured cell viability data.
All answers are understood in %, so give the number only.

MOLECULE	UNIT_ABBREVIATION	cell viability
COc1cc2c3cc1Oc1cc(ccc1O)C[C@@H]1c4c(cc(OC)c(O)c4Oc4ccc(cc4)C[C@@H]3N(C)CC2)CC[N+]1(C)C [tubocurarine]	%	107
O=C(NO)c1ccc(O)c(O)c1 [didox]	%	111
CCCCC[C@H](O)/C=C/[C@H]1[C@H](O)CC(=O)[C@@H]1C/C=C\CCCC(=O)O [dinoprostone]	%	96.3

Now for another entry.
INPUT: cell viability for O=C1C=CC(=O)C2=C1C1c3ccccc3C2c2ccccc21 [INCA-6] ?
OUTPUT: 98.2

====

Here, each record is paired with measured cell viability data.
- Tested on: Vero E6
- ASSAY_NAME: cell viability relative to DMSO; higher = less toxic
- COND: 72 h; 1 nM
All answers are understood in %, so give the number only.

Example molecules with recorded cell viability:
Nc1nc2[nH]cc(CCc3ccc(C(=O)N[C@@H](CCC(=O)O)C(=O)O)cc3)c2c(=O)[nH]1 85.2
CC1(CN)Cc2ccccc2C1 91.2
C/C(=N\c1ccccc1N)c1c(C)cc(=O)n(O)c1O 101
CN1CCN(c2ccc(C(=O)Nc3n[nH]c4ccc(Cc5cc(F)cc(F)c5)cc34)c(NC3CCOCC3)c2)CC1 98.5

Now for another entry.
INPUT: cell viability for `CCn1cc(C(=O)O)c(=O)c2cc3c(cc21)OCO3` ?
OUTPUT: 98.5

====

Here, each record is paired with measured drug sensitivity score data.
- Tested on: Calu-3
- ASSAY_NAME: drug sensitivity score (DSS) for viability; higher = more toxic; extreme values may be limits of the assay
- COND: 72 h
I'd appreciate a reply containing only the number, no unit.

COMPOUND	drug sensitivity score
CNCCc1ccc(O)c(O)c1 [deoxyepinephrine]	0
CC(C)c1cnn2c(NCc3ccccc3)cc(NCCCCCCN)nc12	0
C[C@@H]1CN(Cc2ncccn2)C[C@H]1c1nc2c(cnn2C2CCOCC2)c(=O)[nH]1	0
COC(=O)C1=C(C)NC(C)=C(C(=O)OC)C1c1ccccc1[N+](=O)[O-]	0
CN1CCN(c2cc3c(cc2F)c(=O)c(C(=O)O)cn3-c2ccc(F)cc2)CC1	0

Now for another entry.
INPUT: Record `Cc1cc(Nc2cc(CN3CCOCC3)c3nc(C)c(Cc4ccc(Cl)cc4F)n3n2)n[nH]1` : what is its drug sensitivity score with Calu-3?
OUTPUT: 4.1
